Assay: Pharmacokinetics after single gastrointestinal (gavage) administration in rats (plasma voriconazole)
Type: in vivo
Conditions: SD rats, 2.5 mg/kg (calculated as voriconazole)
testReadout: T1/2 (h)

[
  {
    "molecule": "CC(OC(=O)OCCOCCOP(=O)(O)O)[n+]1cnn(C[C@](O)(c2ccc(F)cc2F)[C@@H](C)c2ncncc2F)c1 (some centres unmarked)",
    "experimentalResult": 2.54
  },
  {
    "molecule": "CC(OC(=O)N(C)c1ncccc1COC(=O)[C@@H](N)CCCNC(N)=O)[n+]1cnn(C[C@](O)(c2ccc(F)cc2F)[C@@H](C)c2ncncc2F)c1.[Cl-] (some centres unmarked)",
    "experimentalResult": 1.98
  },
  {
    "molecule": "CC(OC(=O)N(C)c1ncccc1COC(=O)CN(C)C)[n+]1cnn(C[C@](O)(c2ccc(F)cc2F)[C@@H](C)c2ncncc2F)c1.Cl.Cl.[Cl-] (some centres unmarked)",
    "experimentalResult": 2.59
  },
  {
    "molecule": "CC(OC(=O)N(C)c1ncccc1COC(=O)C(N)CO)[n+]1cnn(CC(O)(c2ccc(F)cc2F)C(C)c2ncncc2F)c1.Cl.Cl.[Cl-] (centres unmarked)",
    "experimentalResult": 2.78
  },
  {
    "molecule": "CC(OC(=O)N(C)c1ncccc1COC(=O)[C@@H](N)CCCCN)[n+]1cnn(C[C@](O)(c2ccc(F)cc2F)[C@@H](C)c2ncncc2F)c1.[Cl-] (some centres unmarked)",
    "experimentalResult": 2.95
  },
  {
    "molecule": "CC(OC(=O)N(C)c1ncccc1COC(=O)CN)[n+]1cnn(C[C@](O)(c2ccc(F)cc2F)[C@@H](C)c2ncncc2F)c1.[Cl-] (some centres unmarked)",
    "experimentalResult": 3.21
  },
  {
    "molecule": "CC(OC(=O)N(C)c1ncccc1COC(=O)[C@@H](N)CCCN)[n+]1cnn(C[C@](O)(c2ccc(F)cc2F)[C@@H](C)c2ncncc2F)c1.Cl.Cl.Cl.[Br-] (some centres unmarked)",
    "experimentalResult": 2.65
  },
  {
    "molecule": "CC(O)C(N)C(=O)OCc1cccnc1N(C)C(=O)OC(C)[n+]1cnn(CC(O)(c2ccc(F)cc2F)C(C)c2ncncc2F)c1.Cl.Cl.[Cl-] (centres unmarked)",
    "experimentalResult": 2.24
  }
]
